Entries and their measured amyloid nucleation score follow.
- assay.info: amyloid nucleation score (Sup35N fusion, yeast selection) (log enrichment); library NNK1; higher = more nucleation; inactive = no reads after selection;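 also: zero at mode of non-aggregating sequences after 7 days selection at 30°C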

substance: HTTSICVRELPDQEVWTAVN
amyloid nucleation score: 0.109

substance: FIVHANWQSFYFLLRLMVF
amyloid nucleation score: -0.109

substance: KVKRFDGCSSRSKHVVTEI
amyloid nucleation score: 4.13

substance: RLSSRVIRKNFDYQTFCHED
amyloid nucleation score: 0.414

substance: LMTLINPQFFSCSFLDDVSN
amyloid nucleation score: -0.362

substance: GVCWRDYGLEAGTGAQVQQC
amyloid nucleation score: 3.03

substance: GIYTFFVGTKFC
amyloid nucleation score: 0.65

substance: YSTSSEVEVDWLSVSKFVSI
amyloid nucleation score: 0.146

substance: FCSYLFMLATTLHQAWFHF
amyloid nucleation score: 1.1

substance: LLLIRSYKCNGRRIRICSLL
amyloid nucleation score: -0.862

substance: QNNCSPARPTAHNYVGGHAT
amyloid nucleation score: 0.656

substance: YVGQGPGSLLTTGWVRYSL
amyloid nucleation score: -0.137

substance: LLWGATFCSSIQPDYNLSPV
amyloid nucleation score: -0.095

substance: NIGVCQIFLDTGMGISVFLN
amyloid nucleation score: 6.06

substance: LDSGQAPSMLLWGSNYWEKL
amyloid nucleation score: 0.808

substance: DMVEMVHCSCF
amyloid nucleation score: 1.49

substance: ALDIFTNTKSVIGYVGIGKC
amyloid nucleation score: 0.194

substance: RQDQLFPICEDSTT
amyloid nucleation score: 0.612

substance: LRSGKAQYTEVVLLRIRPGF
amyloid nucleation score: -1.4

substance: WDSLDIHQFNKDMWQTSG
amyloid nucleation score: -0.909

substance: VALLTNWFTGPQPLTMFTRV
amyloid nucleation score: 1.14

substance: TGVRHATTC
amyloid nucleation score: 1.13

substance: MIAHLAPINRDAEYFINAIC
amyloid nucleation score: -0.236

substance: HNRMMMRADVTAVDTRYFTS
amyloid nucleation score: -1.57

substance: FLYRSYVNIGLGGANISNLV
amyloid nucleation score: 4.3

substance: IILLNNYTDMHIPEGIGVTM
amyloid nucleation score: 0.466

substance: TAGLIILINSYASGRLTGDP
amyloid nucleation score: 6.64

substance: FLLLTSMNPLEWTYGRFWGV
amyloid nucleation score: -0.597

substance: SQLESFWVYMQLRGMTYTVA
amyloid nucleation score: -0.081

substance: FWYSNIYSIFMLPVIVWEPN
amyloid nucleation score: 6.51

substance: LTTPSFYLAGCSSS
amyloid nucleation score: -0.059

substance: LTLFQYAFDVHETAVLKLEW
amyloid nucleation score: -0.166

substance: HSGSDSAITVVSLGIRE
amyloid nucleation score: -0.19

substance: EDSLPLDMEVNLGRIVEPKM
amyloid nucleation score: 1.14

substance: SCSGSRMRELAAVYTVIIEY
amyloid nucleation score: -1.04

substance: VNVGRKYGAVLGPGVNYGAK
amyloid nucleation score: 0.142

substance: GKTISGL
amyloid nucleation score: 0.239

substance: ISLPLTPN
amyloid nucleation score: -0.492

substance: GSIWED
amyloid nucleation score: -0.778

substance: VVTQCLLAAAVHLYCNCHHM
amyloid nucleation score: 6.97

substance: ILMYMWDKLNLYNIWFLRQV
amyloid nucleation score: 0.263

substance: VRTPRRCCSY
amyloid nucleation score: -0.096

substance: RHSFGLFVSRLVRFREDGYY
amyloid nucleation score: -0.508

substance: VNTVMGTMQLKLCHKLRIVG
amyloid nucleation score: 0.19

substance: GGLKMTP
amyloid nucleation score: 0.393

substance: TLSISTMIAAVGTLSVCGDM
amyloid nucleation score: 0.768

substance: VINIFMVSLANTETDPTAHL
amyloid nucleation score: 8.32

substance: KWVHEIRSSMVCVYLAGNSR
amyloid nucleation score: 0.677

substance: ASPMVRISYLNDHKQLKKF
amyloid nucleation score: -0.414

substance: GTRQSDHYCVSTGLCV
amyloid nucleation score: 0.352

substance: DMLWKRWTIYYAFYFKAWGY
amyloid nucleation score: 1.08

substance: RMFCPHCDYLVSVFSWNPRC
amyloid nucleation score: 1.54

substance: SSGFVYIYSSKSLGANSKNL
amyloid nucleation score: -0.176

substance: FLPMSLGWVHKQLIFSPRWY
amyloid nucleation score: 1

substance: QIRRGCRYFW
amyloid nucleation score: -0.856

substance: ANGILV
amyloid nucleation score: 0.499

substance: HKLDQLKASRLPSLVNWRVG
amyloid nucleation score: 1.12

substance: LLHVYYFFISWPMFCMVYM
amyloid nucleation score: -0.203

substance: VYRIAMIF
amyloid nucleation score: 1.22

substance: AHTLSYVFWLYHMDQCVLFV
amyloid nucleation score: -0.127

substance: NNMYTNVRVLKGRCLWVY
amyloid nucleation score: 0.376

substance: SGIEAFNRIIGVCCVLEAGR
amyloid nucleation score: 3.58

substance: DYYLATCYLPYALNCLAFLN
amyloid nucleation score: -1.18

substance: LTCRYLACCSLRSGRQMLVG
amyloid nucleation score: -0.694

substance: EFGASRNAYTMRRILENGSA
amyloid nucleation score: -0.123

substance: TVVHPFSYA
amyloid nucleation score: 0.487

substance: YVVIAEPGYSRDMISLMERC
amyloid nucleation score: -1.16
